Entry source: patent US11911386B2

assay: Phase 1 DDI study: single-dose zanubrutinib PK alone and with steady-state rifabutin (NCT04470908); assay type: in vivo, human; settings: human, plasma, oral, 320 mg
Experimental endpoint: AUC(0-t) (µg·h/mL)
Provide only the numeric value, understood in µg·h/mL.

Prompt: For the compound shown here, C=CC(=O)N1CCC([C@@H]2CCNc3c(C(N)=O)c(-c4ccc(Oc5ccccc5)cc4)nn32)CC1 , give the reported AUC(0-t).
Response: 2.7

###

assay: Phase 1 DDI study: single-dose zanubrutinib PK alone and with steady-state rifabutin (NCT04470908); format: in vivo, human; details: human, plasma, oral, 320 mg, 320 mg zanubrutinib (reference); read-out: AUC0-∞ GLSM
Experimental endpoint: AUC(0-inf) (ng·h/mL)
Provide only the numeric value, understood in ng·h/mL.

Prompt: For the molecule shown here, C=CC(=O)N1CCC([C@@H]2CCNc3c(C(N)=O)c(-c4ccc(Oc5ccccc5)cc4)nn32)CC1 , give the reported AUC(0-inf).
Response: 2780

###

experiment: Phase 1 DDI study: single-dose zanubrutinib PK alone and with steady-state rifabutin (NCT04470908); type: in vivo, human; settings: human, plasma, oral, 320 mg
Experimental endpoint: Vd/F (L)
Provide only the numeric value, understood in L.

Prompt: For the compound shown here, C=CC(=O)N1CCC([C@@H]2CCNc3c(C(N)=O)c(-c4ccc(Oc5ccccc5)cc4)nn32)CC1 [zanubrutinib] , give the reported Vd/F.
Response: 1080
